experiment: Plasma pharmacokinetics after a single oral dose of rucaparib 600 mg in patients with advanced solid tumors, by hepatic function group; settings: human, plasma, oral, 600 mg, Cmax, Geometric LS means, ANOVA; NCI-ODWG normal hepatic function (n = 8)
assayEndpoint: Cmax (ng/mL)
Hi! Could you send only the number? It should be in ng/mL, unit omitted.

Exercise: # return recorded Cmax for entry CNCc1ccc(-c2[nH]c3cc(F)cc4c3c2CCNC4=O)cc1 [rucaparib]
Key: 642

* * *

assay: Plasma pharmacokinetics after a single oral dose of rucaparib 600 mg in patients with advanced solid tumors, by hepatic function group; settings: human, plasma, po, 600 mg, t1/2, Median (min–max), Child–Pugh moderate hepatic impairment; single oral rucaparib 600 mg
assayEndpoint: half-life (h)
Hi! Could you send only the number? It should be in h, unit omitted.

Exercise: # return recorded half-life for entry CNCc1ccc(-c2[nH]c3cc(F)cc4c3c2CCNC4=O)cc1
Key: 49.9

* * *

assay: Plasma pharmacokinetics after a single oral dose of rucaparib 600 mg in patients with advanced solid tumors, by hepatic function group; details: human, plasma, po, 600 mg, Cmax, Mean (SD), Child–Pugh moderate hepatic impairment; single oral rucaparib 600 mg
assayEndpoint: Cmax (ng/mL)
Hi! Could you send only the number? It should be in ng/mL, unit omitted.

Exercise: # return recorded Cmax for entry CNCc1ccc(-c2[nH]c3cc(F)cc4c3c2CCNC4=O)cc1
Key: 694

* * *

experiment: Urine pharmacokinetics (Ae0–24, CLR) after a single oral dose of rucaparib 600 mg in patients with advanced solid tumors; type: in vivo, human; conditions: human, urine, po, 600 mg, Child–Pugh mild hepatic impairment; single oral rucaparib 600 mg; read-out: CLR, Median (min–max)
assayEndpoint: CL renal
# output: number + unit

Exercise: # return recorded CL renal for entry CNCc1ccc(-c2[nH]c3cc(F)cc4c3c2CCNC4=O)cc1
Key: 59.5 mL/min

* * *

test: Urine pharmacokinetics (Ae0–24, CLR) after a single oral dose of rucaparib 600 mg in patients with advanced solid tumors; format: in vivo, human; conditions: human, urine, po, 600 mg, Child–Pugh moderate hepatic impairment; single oral rucaparib 600 mg; read-out: CLR, GM
assayEndpoint: CL renal (mL/min)
Hi! Could you send only the number? It should be in mL/min, unit omitted.

Exercise: # return recorded CL renal for entry CNCc1ccc(-c2[nH]c3cc(F)cc4c3c2CCNC4=O)cc1
Key: 48.8

* * *

assay: Plasma pharmacokinetics after a single oral dose of rucaparib 600 mg in patients with advanced solid tumors, by hepatic function group; conditions: human, plasma, po, 600 mg, Vz/F, Mean (SD), Child–Pugh moderate hepatic impairment; single oral rucaparib 600 mg
assayEndpoint: Vd/F (L)
Hi! Could you send only the number? It should be in L, unit omitted.

Exercise: # return recorded Vd/F for entry CNCc1ccc(-c2[nH]c3cc(F)cc4c3c2CCNC4=O)cc1
Key: 1660

* * *

experiment: Plasma pharmacokinetics after a single oral dose of rucaparib 600 mg in patients with advanced solid tumors, by hepatic function group; conditions: human, plasma, po, 600 mg, t1/2, Mean (SD), Child–Pugh mild hepatic impairment; single oral rucaparib 600 mg
assayEndpoint: half-life

Exercise: # return recorded half-life for entry CNCc1ccc(-c2[nH]c3cc(F)cc4c3c2CCNC4=O)cc1
Key: 27.5 h

* * *

test: Plasma pharmacokinetics after a single oral dose of rucaparib 600 mg in patients with advanced solid tumors, by hepatic function group; settings: human, plasma, po, 600 mg, t1/2, Median (min–max), NCI-ODWG normal hepatic function; single oral rucaparib 600 mg
assayEndpoint: half-life (h)
Hi! Could you send only the number? It should be in h, unit omitted.

Exercise: # return recorded half-life for entry CNCc1ccc(-c2[nH]c3cc(F)cc4c3c2CCNC4=O)cc1 [rucaparib]
Key: 26.3
